B1: library; a variant is named by its letters at X, in order (parent)
chain: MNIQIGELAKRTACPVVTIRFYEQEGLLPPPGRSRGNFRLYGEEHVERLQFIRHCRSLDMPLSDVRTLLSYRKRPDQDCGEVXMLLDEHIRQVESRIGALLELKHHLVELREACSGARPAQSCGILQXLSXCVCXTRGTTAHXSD

Variants of: B1
Assay: sfGFP reporter fluorescence (15 h) (µM FITC); higher = higher leak
Conditions: library round: Round 2; ligand: none
Decision: sfGFP reporter fluorescence >= 0.06 yields condition met, all other cases yield condition not met.

>>> assigned_class("NMDDP R96G K104V")
"condition met"
>>> assigned_class("NGYAP K104R")
"condition met"
>>> assigned_class("NGTYP V133P")
"condition met"
>>> assigned_class("NGSAY L107V")
"condition met"
>>> assigned_class("NGDPP G124S I125L")
"condition not met"
>>> assigned_class("NICDP M60L D64K")
"condition met"
>>> assigned_class("NGCAP S130A")
"condition not met"
>>> assigned_class("TGSAP V108L")
"condition not met"
>>> assigned_class("NGSAA K104R")
"condition met"
